Each recorded value in this set is attributed to patent US20210301026A1.

# Lookup of reported kon keyed by entry
Target: T1, monomeric human CSF1R ectodomain protein (human, UniProt P07333 20-517)
T1 construct: also called biotinylated monomeric human CSF1R
Test: SPR Biacore, IgG captured, monomeric CSF1R analyte
Record the value in M⁻¹ s⁻¹, omitting the unit from your answer.

# Binder, Unit Of Measure, kon
data = [
    ("MH33 (antibody, human IgG4, V domains shown, Deimmunized MH5 derivative, human IgG4(S228P)/Ckappa IgG) VH: QVQLVQSGAEVKKPGSSVKVSCKASGYTFSSAYMIWVRQAPGQGLEWMGDINPYNGGANYAQKFQGRVTITADESTSTAYMELSSLRSEDTAVYYCAREGPYFSNLYVMDYWGRGTLVTVSS VL: EIVLTQSPATLSLSPGERATLSCRASQSVSYEGENYLNWYQQKPGQAPRLLIYAASNRATGIPARFSGSGSGTDFTLTISSPEPEDFAVYYCQLSNEDLLTFGGGTKVEIK", "M⁻¹ s⁻¹", "1.32e+06"),
]

Turning now to a further record.
Would you mind telling me what kon value was observed for MH29 (antibody, human IgG4, V domains shown, Deimmunized MH5 derivative, human IgG4(S228P)/Ckappa IgG) VH: QVQLVQSGAEVKKPGSSVKVSCKASGYTFSSNYMIWVRQAPGQGLEWMGDINPYNGGANYAQKFQGRVTITADESTSTAYMELSSLRSEDTAVYYCAREGPYFSNLYVMDYWGRGTLVTVSS VL: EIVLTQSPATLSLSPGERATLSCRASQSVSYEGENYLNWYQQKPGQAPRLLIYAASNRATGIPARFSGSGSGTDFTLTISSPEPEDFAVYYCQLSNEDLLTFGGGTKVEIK ?
1.71e+06
